# System: L1210 leukemia ip in BDF1 mice, survival T/C
# Assay Protocol: NCI In Vivo Anticancer Drug Screen. Data for tumor model L1210 Leukemia (intraperitoneal) in B6D2F1 (BDF1) mice
# Details: endpoint: mean survival time; dose: 200.0 mg/kg/injection; schedule: Q01DX001 (ip); vehicle: saline; higher = longer survival
Inconclusive results and toxic doses are left out.
Below, each entry is listed with its recorded T/C.

COP1(=O)CC=C(C)C1 (configuration not stated) :: 98 % of control

Asked: Given the compound CC1(C)CC(O)CC(O)C1 (configuration not stated) , what is its reported T/C?
Given back: 104 % of control

Asked: Next up: CN(CC1CNc2nc(N)[nH]c(=O)c2N1C)c1ccc(C(=O)NC(CCC(=O)O)C(=O)O)cc1 (configuration not stated)
Given back: 102 % of control

Asked: Next up: "CCN(CCNC(C)(C)[P+](=O)O)c1ccccc1"
Given back: 105 % of control

###

# Tested on: L1210 leukemia ip in BDF1 mice, survival T/C
# Assay Protocol: NCI In Vivo Anticancer Drug Screen. Data for tumor model L1210 Leukemia (intraperitoneal) in B6D2F1 (BDF1) mice
# Details: endpoint: mean survival time; dose: 200.0 mg/kg/injection; schedule: Q04DX003 (ip); vehicle: Klucel (hydroxypropylcellulose) (HPC); higher = longer survival
Toxic doses and inconclusive results are not listed.
Endpoint: T/C

O=C(O)c1ccc(S(=O)(=O)c2ccc(C(=O)O)cc2)cc1 :: 97 % of control
COC(=O)Nc1cccc2c1C=CC(C#N)N2C(=O)OC (configuration not stated) :: 91 % of control
O/N=C/c1ccc(Cl)cc1Cl :: 97 % of control
C=CCOC(=O)C1CC(C(=O)OCC=C)C(C(=O)OCC=C)C1C(=O)OCC=C (configuration not stated) :: 100 % of control
O=C(NCCBr)Nc1ccc2c(c1)OCO2 :: 101 % of control
O=C(COc1ccc(Cl)cc1C(=O)O)NCc1cccc2ccccc12 :: 98 % of control
Cc1ccc(S(=O)(=O)N(C)c2ccc3cc(C(=O)O)ccc3c2)cc1 :: 106 % of control
CC1(C)C2CC3C(=CCC4C(=O)OC(=O)C43)C1C2 (configuration not stated) :: 100 % of control
CC(C)OB(OC(C)C)OC(C)C :: 95 % of control
COC(=O)C1(C(=O)OC)C2CCCCC21 (configuration not stated) :: 104 % of control

Asked: Given the compound "CCCCCCCCCCCCCCCC(=O)Oc1ccc(C(=S)N2CCOCC2)cc1" , what is its reported T/C?
Given back: 99 % of control

Asked: Next up: "CCOC(=O)c1c(Cl)c(Cl)c(C(=O)OCC)c(Cl)c1Cl"
Given back: 95 % of control

###

Below, each entry is listed with its recorded T/C.
# System: L1210 leukemia ip in BDF1 mice, survival T/C
# Assay Protocol: NCI In Vivo Anticancer Drug Screen. Data for tumor model L1210 Leukemia (intraperitoneal) in B6D2F1 (BDF1) mice
# Details: endpoint: mean survival time; dose: 100.0 mg/kg/injection; schedule: Q04DX002 (ip); vehicle: Klucel (hydroxypropylcellulose) (HPC); higher = longer survival
Inconclusive results and toxic doses are left out.

CS(=O)(=O)Nc1ccccc1-c1nc2ccccc2c(=O)o1 :: 98 % of control

Asked: Given the compound "O=C(COc1ccc(Cl)cc1Cl)OCCOc1ccc(Cl)cc1" , what is its reported T/C?
Given back: 97 % of control

Asked: Next up: "COc1ccccc1NC(=O)N(Cc1ccccc1)C(C)(C)C"
Given back: 95 % of control

meta.source: PubChem BioAssay AID248
